- Tested on: ACHN renal
- Protocol summary: NCI tumour cell line growth inhibition, 48 h; in the data active means GI50 below about 0.43 µM; inactive means the rest
Possible outcomes: True (active), False (inactive)

INSERT INTO assay_data (compound_string, class) VALUES
  ('CCN1CCC(C(=O)Nc2n[nH]c3nnc(-c4cccc(F)c4F)cc23)CC1', 'False'),
  ('COC12C=C/C(=C(/C(=O)OCc3ccncn3)C(=O)CCCCCCCCC3(OC)C=C/C(=C(/C(=O)OCc4ccncn4)C(=O)CCCCCCCC1)O3)O2', 'True'),
  ('COc1ccc(NC(=O)c2ccc(NC3=C(Cl)C(=O)N(Cc4ccccc4)C3=O)cc2)cc1', 'False'),
  ('C#Cc1cccc(NC(=O)Nc2ccccc2NC(=O)CCl)c1', 'False'),
  ('Cc1cc(Cl)n2c(nc3ccccc32)c1C#N', 'False'),
  ('COc1ccc(C(=O)c2cc3c(N)c(C(=O)Nc4cccc(Cl)c4)sc3nc2C)cc1', 'False');
